The reported measurements were obtained from ChEMBL document CHEMBL1138868.

# EXPERIMENTAL_TARGET: Beta-lactamase (Escherichia coli K-12)
# TEST: Inhibition of 30 nM AmpC beta lactamase

TEST_SMILES	UNIT_STRING	IC50
CC(=O)c1c(O)c(C)c(O)c(Cc2c(O)c3c(c(C(=O)/C=C/c4ccccc4)c2O)OC(C)(C)C=C3)c1O	µM	76

---

# EXPERIMENTAL_TARGET: Beta-lactamase (Escherichia coli K-12, UniProt P00811)
# Sequence (P00811 whole entry): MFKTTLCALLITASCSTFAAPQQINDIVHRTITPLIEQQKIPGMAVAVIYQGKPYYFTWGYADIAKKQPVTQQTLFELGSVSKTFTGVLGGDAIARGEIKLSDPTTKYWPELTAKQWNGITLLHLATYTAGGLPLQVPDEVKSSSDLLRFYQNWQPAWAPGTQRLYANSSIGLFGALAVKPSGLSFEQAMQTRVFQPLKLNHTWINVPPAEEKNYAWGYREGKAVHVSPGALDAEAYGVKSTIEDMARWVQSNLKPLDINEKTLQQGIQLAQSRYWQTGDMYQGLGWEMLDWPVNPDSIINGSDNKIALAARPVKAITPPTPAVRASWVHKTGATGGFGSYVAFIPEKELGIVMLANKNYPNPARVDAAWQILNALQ
# TEST: Inhibition of 1 nM AmpC beta lactamase
pIC50: −log10 of the molar value.
RECORDED_ENDPOINT: pIC50

TEST_SMILES	MEASURED_VALUE
O=C1OC(c2ccc(O)cc2)(c2ccc(O)cc2)c2c(I)c(I)c(I)c(I)c21	5.42
CC(=O)c1c(O)c(C)c(O)c(Cc2c(O)c3c(c(C(=O)/C=C/c4ccccc4)c2O)OC(C)(C)C=C3)c1O	5.74

---

# EXPERIMENTAL_TARGET: Beta-lactamase (Escherichia coli K-12)
# TEST: Inhibition of 20 nM AmpC beta lactamase

TEST_SMILES	EXPERIMENTAL_TARGET	UNIT_STRING	IC50
O=C1OC(c2ccc(O)cc2)(c2ccc(O)cc2)c2c(I)c(I)c(I)c(I)c21	Beta-lactamase (Escherichia coli K-12)	µM	19

---

# EXPERIMENTAL_TARGET: Beta-lactamase (Escherichia coli K-12, UniProt P00811)
# TEST: Inhibition of 10 nM AmpC beta lactamase

TEST_SMILES	IC50, µM
O=C1OC(c2ccc(O)cc2)(c2ccc(O)cc2)c2c(I)c(I)c(I)c(I)c21	20
CC(=O)c1c(O)c(C)c(O)c(Cc2c(O)c3c(c(C(=O)/C=C/c4ccccc4)c2O)OC(C)(C)C=C3)c1O	21
